method_description: Oral bioavailability in beagle dogs
Type: in vivo
experimental_context: dog, plasma, intravenous 0.2 mg/kg, mean n=3
reported_property: half-life (h)
The answer is to be given in h; state only the numeric part.

For [2H]C([2H])([2H])NCc1cc(-c2ccccc2F)n(S(=O)(=O)c2ccc(F)cc2)c1 the compound record lists half-life as 3.57

###

method_description: Oral bioavailability in beagle dogs
Type: in vivo
experimental_context: dog, plasma, oral 6 mg/kg (3 mg/ml), mean n=3
reported_property: Tmax (h)
The answer is to be given in h; state only the numeric part.

For [2H]C([2H])([2H])NCc1cc(-c2ccccc2F)n(S(=O)(=O)c2ccc(F)cc2)c1 the molecule record lists Tmax as 3.67

Values were extracted from patent US20250051275A1.
